Tested on: SARS-CoV-2
Run Description: microbe, parasite or virus in culture
Protocol Conditions: Severe acute respiratory syndrome coronavirus 2, HeLa-ACE2, 24 h, read-out: CoV-2 EC50 [μM] (Geomeans, n ≥ 2)
Where a name gives a salt, the structure may show the parent alone.
# key: entry, value: EC50

In [3]: df
Out[3]:
                                   molecule  target_of_assay  result_value
0  COc1ccc2cc1Oc1ccc(cc1)C[C@H]1c3cc(c(OC)cc3CCN1C)Oc1c(OC)c(OC)cc3c1[C@H](C2)N(C)CC3       SARS-CoV-2       1.18 µM
1             CCN(CC)CCCNc1ccnc2cc(Cl)ccc12       SARS-CoV-2        0.8 µM
2  c1ccc2c(c1)Sc1ccccc1N2CC1CN2CCC1CC2 (stereo not shown)       SARS-CoV-2       2.53 µM
3  Cc1cn2nc(-c3cc(=O)n4cc(N5CCNC6(CC6)C5)ccc4n3)cc(C)c2n1       SARS-CoV-2     > 7.05 µM
4  Cc1cccc(C)c1NC(=O)CN1CCN([C@@H]2CCN(C(=O)c3cc(C(F)(F)F)cc(C(F)(F)F)c3)[C@@H](Cc3ccccc3)C2)CC1       SARS-CoV-2       6.83 µM
5  CC(C)Oc1ccc(-c2nc(-c3cccc4c3CC[C@@H]4NCCO)no2)cc1C#N       SARS-CoV-2       2.63 µM
6  C[C@@H](n1cnc2cc(Cl)ccc2c1=O)[C@](O)(Cn1cncn1)c1ccc(F)cc1F       SARS-CoV-2     > 6.04 µM
7               O=c1c2ccccc2[se]n1-c1ccccc1       SARS-CoV-2      > 8.5 µM
8  COc1cc(C(C)=O)ccc1OCCCN1CCC(C(O)(c2ccc(F)cc2)c2ccc(F)cc2)CC1       SARS-CoV-2     > 4.53 µM
9  COc1ccc2c(O[C@@H]3C[C@H]4C(=O)N[C@]5(C(=O)NS(=O)(=O)C6CC6)C[C@H]5/C=C\CCCCN(C)C(=O)[C@@H]4C3)cc(-c3nc(C(C)C)cs3)nc2c1C       SARS-CoV-2     > 7.88 µM

Task: # get_value(readout='EC50', item= Cc1c(O)cccc1C(=O)N[C@@H](CSc1ccccc1)[C@H](O)CN1C[C@H]2CCCC[C@H]2C[C@H]1C(=O)NC(C)(C)C [nelfinavir mesylate] )
Output: > 8.64 µM

Task: "Cc1cccc(/C=N/Nc2cc(N3CCOCC3)nc(OCCc3ccccn3)n2)c1" ?
Output: < 0.006 µM

###

# key: entry, value: HeLa-ACE2 CC50/CoV-2 EC50
Test system: SARS-CoV-2
Structures can show the parent of a compound that is named as a salt.
Please respond with just the number, no unit label.

Examples with their reported HeLa-ACE2 CC50/CoV-2 EC50 follow.
                                   molecule  result_value
0  COc1cc(CC2c3cc(OC)c(OC)cc3CCN2C)c(Oc2cc3c(cc2OC)-c2c(O)c(OC)cc4c2C(C3)N(C)CC4)cc1OC (stereo not shown)         26.77
1  Nc1nc(Nc2ccc3c(c2)CC[C@@H](N2CCCC2)CC3)nn1-c1cc2c(nn1)-c1ccccc1CCC2         13.05
2  CC(C)(C)Cn1c(N)nc2ccc(-c3[nH]c(C(C)(C)C)nc3-c3ccc(F)cc3)nc21 [Ralimetinib mesylate/LY2228820, Ralimetinib mesylate]          14.6

With those in mind, consider the next molecule.
Task: # get_value(readout='HeLa-ACE2 CC50/CoV-2 EC50', item= "CC1=C(c2ccc(O)cc2)[C@H](c2ccc(OCCN3CCCCC3)cc2)Oc2cc(O)ccc21" )
Output: 2.8
